# System: MCF7
# protocol.details: Cytotoxicity against human MCF7 cells assessed as reduction in cell viability preincubated for 5 hrs followed by compound washout and measured after 48 hrs by CCK8 assay
# Assay type: functional, cell-based
pIC50: −log10 of the molar value.
measured.parameter: pIC50

> print(dat)
                                   molecule  measured.parameter   val
1  O=C1c2c(O)ccc(O)c2C(=O)c2c(NCCNCCO)ccc(NCCNCCO)c21 [MITOXANTRONE]               pIC50  6.42

---

# protocol.details: Dark toxicity against mouse H22 cells assessed as reduction in cell viability preincubated for 5 hrs followed by compound washout and measured after 48 hrs by CCK8 assay
# Format: cell-based
measured.parameter: IC50 at 5 h (nM)

> print(dat)
                                   compound  measured.parameter  measurement.unit  val
1  O=C1c2c(O)ccc(O)c2C(=O)c2c(NCCNCCO)ccc(NCCNCCO)c21 [MITOXANTRONE]         IC50 at 5 h                nM  187

---

# System: A-375
# protocol.details: Antiproliferative activity against human A375 cells assessed as reduction in cell viability preincubated for 5 hrs followed by compound washout and subsequent 3 mW/cm2 UVA irradiation measured 48 hrs post irradiation by CCK8 assay
# Type: functional, cell-based
# experimental.conditions: A-375, light or radiation study
measured.parameter: IC50

mol	val
Cc1cn([C@H]2C[C@H](n3cc(CNC(=O)CCCCCOc4ccc5c(c4)-c4nc6cc7ccccc7cc6nc4[C@H]4C(C)(C)CCC[C@]54C)nn3)[C@@H](CO)O2)c(=O)[nH]c1=O	25.3 nM
Cc1cn([C@H]2C[C@H](n3cc(CNC(=O)CCCCCOc4ccc5c(c4)-c4nc6cc7ccccc7cc6nc4[C@@H]4C(C)(C)CCC[C@]54C)nn3)[C@@H](CO)O2)c(=O)[nH]c1=O	44 nM

---

Here, each record is paired with measured IC50 data.
# Test system: Bel-7402
# protocol.details: Antiproliferative activity against human Bel7402 cells assessed as reduction in cell viability preincubated for 5 hrs followed by compound washout and subsequent 3 mW/cm2 UVA irradiation for 20 mins measured 48 hrs post irradiation by CCK8 assay
# Type: functional, cell-based
# experimental.conditions: Bel-7402, light or radiation study

molecule	IC50 (nM)
Cc1cn([C@H]2C[C@H](n3cc(CNC(=O)CCCCCOc4ccc5c(c4)-c4nc6ccccc6nc4[C@@H]4C(C)(C)CCC[C@]54C)nn3)[C@@H](CO)O2)c(=O)[nH]c1=O	251
Cc1cn([C@H]2C[C@H](n3cc(CNC(=O)CCCCCOc4ccc5c(c4)-c4nc6cc7ccccc7cc6nc4[C@@H]4C(C)(C)CCC[C@]54C)nn3)[C@@H](CO)O2)c(=O)[nH]c1=O	44.3
Cc1cn([C@H]2C[C@H](n3cc(CNC(=O)CCCCCOc4ccc5c(c4)-c4nc6cc7ccccc7cc6nc4[C@H]4C(C)(C)CCC[C@]54C)nn3)[C@@H](CO)O2)c(=O)[nH]c1=O	26.6
C=CC1=C(C)c2cc3[nH]c(cc4nc(cc5[nH]c(cc1n2)c(C)c5CCC(=O)O)C(CCC(=O)O)=C4C)c(C)c3C=C [PROTOPORPHYRIN]	310
